Test: xn = mol fraction of the nth substance listed, in the solute-free solvent
Conditions: 313.15 K; x2 = 0.03225
assay_readout: solubility (g/100 g solution)

(a) c1ccc2[nH]c(-c3cscn3)nc2c1 + CC(C)O + O
(b) c1ccc2[nH]c(-c3cscn3)nc2c1 + CCCO + O
(c) Nc1nccnc1Cl + CC(C)O + O
Query: In this exercise, place the 3 compounds in ascending sequence of their recorded solubility (g/100 g solution). As an answer, provide the labels arranged in the order called for.
Response: a, b, c

----------
Test: xn = mol fraction of the nth substance listed, in the solute-free solvent
Conditions: 283.15 K; x2 = 0.3698
assay_readout: solubility (g/100 g solution)

CC(C)OC(=O)C(C)NP(=O)(OCC1OC(n2ccc(=O)[nH]c2=O)C(C)(F)C1O)Oc1ccccc1 (stereo not drawn) + CCO + O	11.6

(1) Nc1cccc(S(=O)(=O)c2cccc(N)c2)c1 + CCO + O
(2) Cc1[nH]c(=O)c(C#N)cc1-c1ccncc1 + CCO + O
Query: # query: argmin of solubility (g/100 g solution) over 1 and 2 Lab note: record the label of whichever item you select.
Response: 2
(2: 0.00322, 1: 0.604)

----------
Overview of reported solubility (g/100 g solution) across a group of compounds:
Experiment: xn = mol fraction of the nth substance listed, in the solute-free solvent
Conditions: 313.15 K; x2 = 0.5
// no unit, no text: just the number

Past entries and their recorded results:
CC(N)C(=O)O (stereo not drawn) + O + CC(C)O	0.316
CC(N)C(=O)O (stereo not drawn) + O + CCCO	0.504

The record that follows has no solubility (g/100 g solution) shown yet.
Query: Give the reported value of solubility (g/100 g solution) for this record: OCCN(CCO)c1nc(N2CCCCC2)c2nc(N(CCO)CCO)nc(N3CCCCC3)c2n1 + CC(C)O + O
Response: 21.7

----------
Test: xn = mol fraction of the nth substance listed, in the solute-free solvent
Settings: 283.15 K; x2 = 0.4
assay_readout: solubility (g/100 g solution)

Here is how some molecules turned out for solubility (g/100 g solution).
S=c1[nH]ncs1 + CO + O	3.26
Cc1ncc(C[n+]2csc(CCO)c2C)c(N)n1.O=[N+]([O-])[O-] + O + CC(C)O	0.119

(I) CCCCCOC(=O)Nc1nc(=O)n(C2OC(C)C(O)C2O)cc1F (configuration not stated) + CCOC(C)=O + CCCCCCC
(II) CCCCCOC(=O)Nc1nc(=O)n(C2OC(C)C(O)C2O)cc1F (configuration not stated) + CCOC(C)=O + CCCCCC
Query: // which entry reports the smaller solubility (g/100 g solution), I or II ? Give the label under which the chosen entry appears.
Response: I

----------
Assay: xn = mol fraction of the nth substance listed, in the solute-free solvent
Details: 313.15 K; x2 = 0.7
assay_readout: solubility (g/100 g solution)

CC(N)C(=O)O (stereo unspecified) + O + CCO	2.12

(a) OCCN(CCO)c1nc(N2CCCCC2)c2nc(N(CCO)CCO)nc(N3CCCCC3)c2n1 + CO + O
(b) CCCCCOC(=O)Nc1nc(=O)n(C2OC(C)C(O)C2O)cc1F (stereo unspecified) + CCOC(C)=O + CCCCCCC
Query: Lab log: flag the item ( a or b ) with the smaller solubility (g/100 g solution) figure. // caller expects the label of the chosen entry
Response: b
(b: 1.31, a: 7.41)
